# System: CD8+ T-cells
# Format: cell-based, human
measurement label: Median pentamer+/CD8+ cells (range)

Task: Name the reported Median pentamer+/CD8+ cells (range) value associated with the sequence RLQPGLKWV [GPC3 44-52, peptide and HLA-A2.1 pentamer loaded with it]
Result: 0.20 (0.10-0.30) %

Task: Thanks! And SLTPQAFEFV [GPC3 136-145, peptide and HLA-A2.1 pentamer loaded with it] ?
Result: 0.70 (0.05-1.30) %

Task: Could you do the same for KLLTSMAISV [GPC3 563-572, peptide and HLA-A2.1 pentamer loaded with it] , please?
Result: 0.45 (0.05-1.60) %

Task: Same read-out for ELFDSLFPV [GPC3 169-178, peptide and HLA-A2.1 pentamer loaded with it] ?
Result: 1.00 (0.20-1.60) %

Task: Here is the next sequence: CINGVCWTV [NS3 1073, reference compound]
Result: 0.07 (0.03-0.10) %

Task: Let us now turn to LMLGEFLKL [SurlM2, reference compound]
Result: 0.20 (0.20-0.20) %

Task: Now consider GILGFTFVL [Flu matrix, reference compound] .
Result: 0.40 (0.30-1.30) %

Task: And then FEFVGEFFTD [GPC3 142-151, peptide and HLA-A2.1 pentamer loaded with it] , what is it?
Result: 0.47 (0.03-0.90) %
